All figures here come from PubChem BioAssay (NCI).

Test system: MOLT-4 leukemia
Assay: NCI-60 one-dose screen, 48 h
Details: 10 µM
This is part of a sample that, as a whole, favours compounds with a hit. Of some 83,000 tested, about 20% had one in any assay. Activity calls are given as the source filed them. The calls were made as follows: active = growth percent below 10; inactive = the rest.
Output constraint: value belongs to True (active), False (inactive)

Input line: What was the test verdict on Cc1nc2c(c(=O)[nH]1)OCN(Cc1ccccc1)C2 ?
Output line: False

Input line: Lab log entry: C#Cc1ccc(-n2c(/C=C/c3ccc(C(F)(F)F)cc3)nc3ncccc3c2=O)cc1 — outcome as called in the assay?
Output line: False

Input line: Field: outcome | Entry: COc1ccc(/C=C2/CN(CCC#N)C/C(=C\c3ccc(OC)cc3)C2=O)cc1
Output line: True
